Study system: T1, SNTA1, Q13424
T1 sequence (Q13424 82-180, limits assumed, looked up): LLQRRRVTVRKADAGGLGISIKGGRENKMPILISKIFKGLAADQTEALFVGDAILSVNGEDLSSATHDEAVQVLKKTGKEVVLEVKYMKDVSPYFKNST
Assay details: holdup assay
Parameters: key: below the threshold = too weak to quantify, mostly under pKd 3.1 to 4
Measurement setup: plain residues with an end cap or a label only (N-terminal biotin on a linker: ado-ado)
Measured attribute: pKd

The examples below pair each entry with its known result.
TRKRSGEAAV [PFKM, P08237]; below the threshold
AAVENKVTDL [PLXNB1, O43157]; 4.33
EDPRVEVTQF [SLC22A9, Q8IVM8]; below the threshold
NTANRRTTPV [CACNG2, Q9Y698]; 4.1
RSSGGDDFWF [KCNV1, Q6PIU1]; below the threshold

In: Tell me the measured pKd of QSGLYESEEL [MYOT, Q9UBF9] , please.
Out: below the threshold

In: Also check TISFTQTSQF [SLC1A1, P43005]
Out: below the threshold

In: Also check NTLNRKTTPV [CACNG8, Q8WXS5]
Out: 3.93
